# target.or.test.system: Tubulin (Sus scrofa, UniProt P02554+P02550)
# test.method.notes: Inhibition of pig brain tubulin polymerization after 30 mins by turbidimetric assay
Param label: returns Condition met when IC50 < 2 µM, returns Condition not met otherwise, including exact equality.

Example results:
stdin: Strictly below 2 µM: is that where IC50 of O=C(C=C1c2ccccc2C(=O)c2ccccc21)c1cccs1 sits?
stdout: Condition not met

stdin: Same lookup for COc1cc(C(=O)C(O)C2c3ccccc3C(=O)c3ccccc32)cc(OC)c1OC (stereo not drawn) , please.
stdout: Condition not met

stdin: Same lookup for COc1ccc(C(=O)C=C2c3ccccc3C(=O)c3ccccc32)cc1 , please.
stdout: Condition met

stdin: Same lookup for O=C1c2ccccc2C(C(O)C(=O)c2ccccc2)c2ccccc21 (stereo not drawn) , please.
stdout: Condition not met

stdin: Same lookup for COc1ccc(C(=O)C=C2c3ccccc3C(=O)c3ccccc32)c(OC)c1 , please.
stdout: Condition met

stdin: Same lookup for COc1csc(C(=O)C=C2c3ccccc3C(=O)c3ccccc32)c1 , please.
stdout: Condition not met

stdin: Same lookup for COc1ccc(C(=O)C=C2c3ccccc3C(O)c3ccccc32)cc1 (stereo not drawn) , please.
stdout: Condition met

stdin: Same lookup for COc1ccc(C(=O)C(O)C2c3ccccc3C(=O)c3ccccc32)cc1 (stereo not drawn) , please.
stdout: Condition not met

stdin: Same lookup for COc1ccc(C(=O)C=C2c3ccccc3C(=O)c3ccccc32)c(O)c1OC , please.
stdout: Condition not met

stdin: Same lookup for COc1cc(C(=O)C=C2c3ccccc3C(=O)c3ccccc32)cc(OC)c1OC , please.
stdout: Condition not met

Others:
stdin: Strictly below 2 µM: is that where IC50 of O=C(C=C1c2ccccc2C(=O)c2ccccc21)c1ccc(O)c(O)c1 sits?
stdout: Condition not met

stdin: Same lookup for COc1ccc(C(=O)C=C2c3ccccc3C(=O)c3ccccc32)c(OC)c1OC , please.
stdout: Condition not met

stdin: Same lookup for Cc1ccc(C(=O)C=C2c3ccccc3C(=O)c3ccccc32)cc1 , please.
stdout: Condition met
